Test: physchem
Details: pH 5, aqueous buffer, thermodynamic from solid

>  <smiles text>
CN1CC[C@H](c2c(OC(=O)N(C)CCN)cc(O)c3c(=O)cc(-c4ccccc4Cl)oc23)[C@H](O)C1

>  <solubility>
> 10000 µg/mL

$$$$

----------
Assay: physchem
Conditions: pH 3, aqueous buffer, thermodynamic from solid
Counter-ions that a name gives are not always drawn.

>  <compound>
CC(=O)c1cc2c(O)c3c(O)cccc3c(OC(=O)NCCCN)c2o1 [Reference Example 9, hydrochloride]

>  <solubility>
> 10000 µg/mL

$$$$

----------
Assay: Solution stability test (residual ratio and generation of active form in buffers of pH 2.0 to 9.0)
Type: physicochemical
Conditions: pH of 5.0, 25° C.
Method: The test compounds were incubated at 25° C. at a concentration of 25 umol/L in a buffer prepared to have a pH of 2.0, 3.0, 5.0, 7.4, and 9.0. The compounds were measured by HPLC after 0, 3, 6, 9, 12, and 24 hours. […] The yield of the Example and Reference Example compounds and active forms is calculated with each of the peak area of the Example and Reference Example compounds at 0 minutes and the peak area upon dissolution of the corresponding active form at 100 umol/L as 100%. […]
Counter-ions that a name gives are not always drawn.

>  <compound>
CN1CC[C@H](c2c(O)cc(OC(=O)N(C)CCN)c3c(=O)cc(-c4ccccc4Cl)oc23)[C@H](O)C1 [Example 9, ditrifluoroacetate]

>  <Stability in solution (in words)>
stable

$$$$
>  <compound>
NCCCNC(=O)Oc1c(OC(=O)NCCCN)c(-c2ccccc2)c2c(c1-c1ccccc1)OCO2

>  <Stability in solution (in words)>
very stable

$$$$
>  <compound>
C[C@H]1COc2c1c(OC(=O)NCCCNCC(=O)O)c(OC(=O)NCCCNCC(=O)O)c1c3c(ccc21)C(C)(C)CCC3 [Example 13, dihydrochloride]

>  <Stability in solution (in words)>
stable

$$$$
>  <compound>
Cc1cc(OC(=O)NCCNCC(=O)O)c2ccccc2c1OC(=O)NCCNCC(=O)O [Example 2, dihydrochloride]

>  <Stability in solution (in words)>
very stable

$$$$
>  <compound>
CNCCN(C)C(=O)Oc1cc(O)c([C@H]2CCN(C)C[C@H]2O)c2oc(-c3ccccc3Cl)cc(=O)c12 [Example 11, ditrifluoroacetate]

>  <Stability in solution (in words)>
stable

$$$$

----------
Item-by-item account of Residual ratio
Experiment: Solution stability test (residual ratio and generation of active form in buffers of pH 2.0 to 9.0)
Assay type: physicochemical
Details: pH9.0 buffer, 25° C., 25 umol/L, 24 hr
Method: The test compounds were incubated at 25° C. at a concentration of 25 umol/L in a buffer prepared to have a pH of 2.0, 3.0, 5.0, 7.4, and 9.0. The compounds were measured by HPLC after 0, 3, 6, 9, 12, and 24 hours. […] The yield of the Example and Reference Example compounds and active forms is calculated with each of the peak area of the Example and Reference Example compounds at 0 minutes and the peak area upon dissolution of the corresponding active form at 100 umol/L as 100%. […]
Where a name gives a salt, the structure may show the parent alone.
endpoint name: Residual ratio (%)

>  <compound>
CC(=O)c1cc2c(OC(=O)NCCNCC(=O)O)c3ccsc3c(OC(=O)NCCNCC(=O)O)c2o1 [Example 1, dihydrochloride]

>  <readout unit>
%

>  <result value>
0.0

$$$$
>  <compound>
C[C@H]1COc2c1c(OC(=O)NCCCNCC(=O)O)c(OC(=O)NCCCNCC(=O)O)c1c3c(ccc21)C(C)(C)CCC3 [Example 13, dihydrochloride]

>  <readout unit>
%

>  <result value>
100

$$$$
>  <compound>
NCCCNC(=O)Oc1c(OC(=O)NCCCN)c(-c2ccccc2)c2c(c1-c1ccccc1)OCO2

>  <readout unit>
%

>  <result value>
0.9

$$$$
>  <compound>
CC(=O)c1cc2c(O)c3c(O)cccc3c(OC(=O)NCCCN)c2o1 [Reference Example 9, hydrochloride]

>  <readout unit>
%

>  <result value>
0.0

$$$$
>  <compound>
CN1CC[C@H](c2c(OC(=O)N(C)CCN)cc(O)c3c(=O)cc(-c4ccccc4Cl)oc23)[C@H](O)C1

>  <readout unit>
%

>  <result value>
0.0

$$$$
>  <compound>
Cc1cc(OC(=O)NCCNCC(=O)O)c2ccccc2c1OC(=O)NCCNCC(=O)O [Example 2, dihydrochloride]

>  <readout unit>
%

>  <result value>
0.0

$$$$
